TARGET_OR_TEST_SYSTEM: human thrombin with His tag (human, UniProt P00734 328-622)
METHOD_DESCRIPTION: Biacore
READOUT: Kd (nM)
Report the value in nM with no unit label.

aTM-4 (antibody, V domains shown) VH: EVQLVESGGGLVQPGGSLRLSCAASGFTFSDYYMAWVRQAPGKGLEWVSNINSDGSSTYYLDSLKSRFTISRDNSKNTLYLQMNSLKAEDTAVYYCARDHYLGNSYVFDLWGQGTTVTVSS VL: DIQMTQSPSSLSASVGDRVTITCKASEDIYNRLAWYQQKPGKAPRLIISGATSLETGVPSRFSGSGSGKDYTLTISSLQPEDFATYYCQQYWSTPWTFGGGTKVEIK yielded Kd of 0.144

Given item aTM-2 (antibody, V domains shown) VH: EVQLVESGGGLVQPGGSLRLSCAASGFTFSDYYMAWVRQAPGKGLEWVSNINSDGSSTYYLDSLKSRFTISRDNSKNTLYLQMNSLKAEDTAVYYCARDHYLGNSYVFDSWGQGTTVTVSS VL: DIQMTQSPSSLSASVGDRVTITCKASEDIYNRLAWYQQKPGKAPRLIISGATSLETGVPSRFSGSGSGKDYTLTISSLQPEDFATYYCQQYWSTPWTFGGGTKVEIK , the value recorded as its Kd is 0.0899
